Tested on: KM12 colon
assay: NCI tumour cell line growth inhibition, 384-well format; in the data active = GI50 below about 0.43 µM; inactive = the rest
Respond using exactly one of the listed classes: yes (1) (active), no (0) (inactive)

Query block: Which outcome was assigned to "CN(C)c1cc2c(cc1Sc1nc3c(N)nccc3n1CCNCC(C)(C)C)OCO2" in this test?
Result block: yes (1)

Query block: Which outcome was assigned to "Nc1cc2c(cc1Cl)C(=O)c1ccccc1C2=O" in this test?
Result block: no (0)

Query block: Which outcome was assigned to "NCC(=O)Nc1ccc(-n2nc(C(F)(F)F)cc2-c2ccc3c(ccc4ccccc43)c2)cc1" in this test?
Result block: no (0)

Query block: Which outcome was assigned to "O=S(=O)(c1ccc2c(c1)C(=NO)c1cc(S(=O)(=O)N3CCCCC3)ccc1-2)N1CCCCC1" in this test?
Result block: yes (1)

---

Test system: SF-539 CNS
assay: NCI tumour cell line growth inhibition, 384-well format; in the data active = GI50 below about 0.43 µM; inactive = the rest
Respond using exactly one of the listed classes: T (active), F (inactive)

Query block: Which outcome was assigned to "O=S(=O)(c1ccc2c(c1)C(=NO)c1cc(S(=O)(=O)N3CCCCC3)ccc1-2)N1CCCCC1" in this test?
Result block: T

Query block: Which outcome was assigned to "CN(C)c1cc2c(cc1Sc1nc3c(N)nccc3n1CCNCC(C)(C)C)OCO2" in this test?
Result block: T

Query block: Which outcome was assigned to "CCNC(=O)Nc1ccc(-c2nc3c(c(N4CCOC[C@@H]4C)n2)CCN(C2COC2)C3)cc1" in this test?
Result block: F

Query block: Which outcome was assigned to "O=C(c1ccc(F)c(F)c1Nc1ccc(I)cc1F)N1CC(O)([C@H]2CCCCN2)C1" in this test?
Result block: F

Query block: Which outcome was assigned to "COc1c(Nc2ncc(Cl)c(N[C@@H]3[C@H]4C=CC(C4)[C@@H]3C(N)=O)n2)ccc2c1CC[C@@H](N1CCOCC1)CC2" in this test?
Result block: F

---

System: HCC-2998 colon
assay: NCI tumour cell line growth inhibition, 384-well format
Could you please report measured TGI for the items listed next?
Just the number please, in µM, no unit attached.

Query block: Any idea what its TGI is? The compound is "CN(C)c1cc2c(cc1Sc1nc3c(N)nccc3n1CCNCC(C)(C)C)OCO2"
Result block: 0.419

Query block: Any idea what its TGI is? The compound is "NCC(=O)Nc1ccc(-n2nc(C(F)(F)F)cc2-c2ccc3c(ccc4ccccc43)c2)cc1"
Result block: 2.25

Query block: Any idea what its TGI is? The compound is "O=C(c1ccc(F)c(F)c1Nc1ccc(I)cc1F)N1CC(O)([C@H]2CCCCN2)C1"
Result block: 1.21

Query block: Any idea what its TGI is? The compound is "O=S(=O)(c1ccc2c(c1)C(=NO)c1cc(S(=O)(=O)N3CCCCC3)ccc1-2)N1CCCCC1"
Result block: 0.303

---

Tested on: UACC-257 melanoma
assay: NCI tumour cell line growth inhibition, 384-well format; in the data active = GI50 below about 0.43 µM; inactive = the rest
Respond using exactly one of the listed classes: true (1) = active, false (0) = inactive

Query block: Which outcome was assigned to "O=S(=O)(c1ccc2c(c1)C(=NO)c1cc(S(=O)(=O)N3CCCCC3)ccc1-2)N1CCCCC1" in this test?
Result block: true (1)

Query block: Which outcome was assigned to "NCC(=O)Nc1ccc(-n2nc(C(F)(F)F)cc2-c2ccc3c(ccc4ccccc43)c2)cc1" in this test?
Result block: false (0)

Query block: Which outcome was assigned to "O=C(c1ccc(F)c(F)c1Nc1ccc(I)cc1F)N1CC(O)([C@H]2CCCCN2)C1" in this test?
Result block: true (1)

Query block: Which outcome was assigned to "Nc1cc2c(cc1Cl)C(=O)c1ccccc1C2=O" in this test?
Result block: false (0)
